- Tested on: AC9
- METHOD NOTES: Western blot of AC9 protein after siRNA transfection of HepG2 cells
- Type: cell-based, human
- EXPERIMENTAL SETUP: HepG2 transfected with siRNA, actin loading control, n=8
MEASURED PARAMETER: AC9 protein expression in human HepG2 cells (% of siScramble) (% ***)

SUBSTANCE | READING UNIT | OBSERVED MEASUREMENT
ADCY9-2: siRNA, sense SEQ ID NO: 5 CGAAACAGGAAUAGAAGAAUU, antisense SEQ ID NO: 6 UUCUUCUAUUCCUGUUUCGUU; targets ADCY9 mRNA Exon 10 (listed as RNA, chemistry not fully specified) | % *** | 16
ADCY9-4: siRNA, sense SEQ ID NO: 9 GCACCAAGAUCCAGAGCAUUU, antisense SEQ ID NO: 10 AUGCUCUGGAUCUUGGUGCUU; targets ADCY9 mRNA Exon 10 (listed as RNA, chemistry not fully specified) | % *** | 15
ADCY9-1: siRNA, sense SEQ ID NO: 3 CGAAAUGGAAGAUGGGAAAUU, antisense SEQ ID NO: 4 UUUCCCAUCUUCCAUUUCGUU; targets ADCY9 mRNA Exon 2 (listed as RNA, chemistry not fully specified) | % *** | 24
ADCY9-ID1039: siRNA, sense SEQ ID NO: 1 CCUGAUGAAAGAUUACUUUTT, antisense SEQ ID NO: 2 AAAGUAAUCUUUCAUCAGGCT; targets ADCY9 mRNA Exon 5 (chemistry not fully specified) | % *** | 15
ADCY9-3: siRNA, sense SEQ ID NO: 7 AGGAAGAGGUCAUAAAGAAUU, antisense SEQ ID NO: 8 UUCUUUAUGACCUCUUCCUUU; targets ADCY9 mRNA Exon 5-6 (listed as RNA, chemistry not fully specified) | % *** | 17

====

// values below are reported LDLr protein expression in human HepG2 cells (% of siScramble)
- Test system: LDLr
- METHOD NOTES: Western blot of LDLr protein in HepG2 cells
- Type: cell-based, human
- EXPERIMENTAL SETUP: HepG2 transfected with siRNA; Western blot, actin loading control; n=8
MEASURED PARAMETER: LDLr protein expression in human HepG2 cells (% of siScramble) (% **)

SUBSTANCE | MEASURED TARGET | OBSERVED MEASUREMENT
ADCY9-1: siRNA, sense SEQ ID NO: 3 CGAAAUGGAAGAUGGGAAAUU, antisense SEQ ID NO: 4 UUUCCCAUCUUCCAUUUCGUU; targets ADCY9 mRNA Exon 2 (listed as RNA, chemistry not fully specified) | LDLr | 131
ADCY9-4: siRNA, sense SEQ ID NO: 9 GCACCAAGAUCCAGAGCAUUU, antisense SEQ ID NO: 10 AUGCUCUGGAUCUUGGUGCUU; targets ADCY9 mRNA Exon 10 (listed as RNA, chemistry not fully specified) | LDLr | 150
ADCY9-2: siRNA, sense SEQ ID NO: 5 CGAAACAGGAAUAGAAGAAUU, antisense SEQ ID NO: 6 UUCUUCUAUUCCUGUUUCGUU; targets ADCY9 mRNA Exon 10 (listed as RNA, chemistry not fully specified) | LDLr | 122
